condition-set: Liquid; Visual observation in an unstirred cell
Exercise: for every item that follows, state its recorded Critical temperature.
Give bare numbers, in K.

Examples from the recorded data:
So for "CCO" , the logged Critical temperature turned out to be 514.2

So for "CCCCCCC" , the logged Critical temperature turned out to be 540

So for "CO" , the logged Critical temperature turned out to be 512.3

Now look at this entry.
So for "CCCO" , the logged Critical temperature turned out to be 537

* * *

condition-set: Liquid; Direct measurement
measurement-kind: Critical pressure (kPa)
Answers are plain numbers, in kPa.

Examples from the recorded data:
So for "CCCO" , the logged Critical pressure turned out to be 5172

So for "CO" , the logged Critical pressure turned out to be 8128

So for "CCO" , the logged Critical pressure turned out to be 6135

Now look at this entry.
So for "CCCCCCC" , the logged Critical pressure turned out to be 2761
